# Target under test: T1, pig serum albumin (pig, UniProt P08835 25-607)
# T1 construct: bought protein, amine-coupled to a CM5 chip; also called Pig SA
# Protocol summary: SPR (Biacore 8K), albumin immobilised, 25 C, 1:1 kinetics
Property label: kon (M⁻¹ s⁻¹)
All answers are understood in M⁻¹ s⁻¹, so give the number only.

INS Analog 28 (other, single-chain insulin B-L2-A-L1-VHH fusion; also called Ex. 28) FVSQHLCGSHLVEALRLVCGERGFFYTPKTGGGGGGGIVEQCCHSICSLYQLENYCGPGPQPGPQPGPQPGPQPGPQPGPQPGPQPGPQEVQLLESGGGLVQPGGSLRLSCAASGRYIDETAVAWFRQAPGKEREFVAGIGGGVDITYYADSVKGRFTISRDNSKNTLYLQMNSLRPEDTAVYYCAARPGRPLITSKVADLYPYWGQGTLVTVSSPP | 110000

# ---- query binder ----
State its kon: INS Analog 25 (other, single-chain insulin B-L2-A-L1-VHH fusion; also called Ex. 25) FVSQHLCGSHLVEALRLVCGERGFFYTPKTGGGGGGGIVEQCCTSICSLYQLENYCGGGGGQGGGGQGGGGQGGGGQGGGGQEVQLLESGGGLVQPGGSLRLSCAASGRYIDETAVAWFRQAPGKEREFVAGIGGGVDITYYADSVKGRFTISRDNSKNTLYLQMNSLRPEDTAVYYCAARPGRPLITSKVADLYPYWGQGTLVTVSSPP
130000
